The values you see were collected from patent US9365506B2.

- target-or-system: human TLR2 (Homo sapiens, UniProt O60603)
- Sequence (O60603 21-784): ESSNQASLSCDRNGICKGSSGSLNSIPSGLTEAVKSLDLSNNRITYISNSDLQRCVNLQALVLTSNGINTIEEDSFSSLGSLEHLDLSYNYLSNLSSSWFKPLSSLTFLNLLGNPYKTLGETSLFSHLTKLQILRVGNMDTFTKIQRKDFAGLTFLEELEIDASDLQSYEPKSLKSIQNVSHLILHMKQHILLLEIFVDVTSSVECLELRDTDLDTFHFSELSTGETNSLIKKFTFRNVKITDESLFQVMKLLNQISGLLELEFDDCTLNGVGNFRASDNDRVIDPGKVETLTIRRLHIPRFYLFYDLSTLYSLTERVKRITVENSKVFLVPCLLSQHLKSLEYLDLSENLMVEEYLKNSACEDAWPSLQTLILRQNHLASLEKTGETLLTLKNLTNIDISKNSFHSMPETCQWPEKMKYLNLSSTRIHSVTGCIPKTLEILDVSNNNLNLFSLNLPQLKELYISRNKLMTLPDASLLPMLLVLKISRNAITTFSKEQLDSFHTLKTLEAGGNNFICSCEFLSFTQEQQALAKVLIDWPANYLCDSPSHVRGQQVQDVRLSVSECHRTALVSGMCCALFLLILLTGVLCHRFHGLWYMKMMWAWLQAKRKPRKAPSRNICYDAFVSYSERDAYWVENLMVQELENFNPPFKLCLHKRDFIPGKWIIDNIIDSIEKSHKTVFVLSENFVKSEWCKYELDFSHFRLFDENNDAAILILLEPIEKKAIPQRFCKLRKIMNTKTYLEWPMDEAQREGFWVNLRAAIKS
- assay: Reporter gene assay: HEK 293 cells stably transfected with human TLR2 and NF-kB-driven luciferase reporter
- assay-setup: Hek-TLR2 μM (EC50), HEK 293 stably transfected with human TLR2 and pNifty-Luciferase; 7 hours incubation; concentration giving 50% of maximal signal
assay-metric: pEC50
Scale note: pEC50 = -log10(concentration in M).

Look over these answered cases.
>  <compound>
CCCCCCCCCCCCOC[C@H](CSC[C@H](N)C(=O)NCCOCCOCCOCCC(=O)O)NC(=O)CCCCCCCCCCC [Example 33]

>  <assay-metric>
pEC50

>  <measurement>
5.41

$$$$
>  <compound>
CCCCCCCCCCCCOC[C@H](CSC[C@H](N)C(=O)NCCOCCOCCC(F)(F)P(=O)(O)O)OCCCCCCCCCCCC [Example 22]

>  <assay-metric>
pEC50

>  <measurement>
5.61

$$$$
>  <compound>
CCCCCCCCCCCCOC[C@H](CSC[C@H](N)C(=O)N[C@@H](C)C(=O)NCCOCCOCCP(=O)(O)O)NC(=O)CCCCCCCCCCC [Example 31]

>  <assay-metric>
pEC50

>  <measurement>
5.54

$$$$

Query block: Form field: reported pEC50 of CCCCCCCCCCCC(=O)OC[C@H](CSC[C@H](N)C(=O)NCCCOCCOCCOCCCN)OC(=O)CCCCCCCCCCC [Example 64]
Result block: 6.30

Query block: Which pEC50 value belongs to CCCCCCCCCCCC(=O)OC[C@H](CSC[C@H](N)C(=O)NCCc1ccc(Oc2ccccc2)cc1)OC(=O)CCCCCCCCCCC [Example 68] ?
Result block: 5.39

Query block: Can you share its pEC50? I mean this compound: CCCCCCCCCCCC(=O)OC[C@H](CSC[C@H](N)C(=O)NCCCCN)OC(=O)CCCCCCCCCCC [Example 57]
Result block: 5.98
